Target: furin, P09958;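 note: purified furin at 1:10 enzyme:substrate in 50 mM HEPES pH 7.5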
Sequence (P09958 whole entry): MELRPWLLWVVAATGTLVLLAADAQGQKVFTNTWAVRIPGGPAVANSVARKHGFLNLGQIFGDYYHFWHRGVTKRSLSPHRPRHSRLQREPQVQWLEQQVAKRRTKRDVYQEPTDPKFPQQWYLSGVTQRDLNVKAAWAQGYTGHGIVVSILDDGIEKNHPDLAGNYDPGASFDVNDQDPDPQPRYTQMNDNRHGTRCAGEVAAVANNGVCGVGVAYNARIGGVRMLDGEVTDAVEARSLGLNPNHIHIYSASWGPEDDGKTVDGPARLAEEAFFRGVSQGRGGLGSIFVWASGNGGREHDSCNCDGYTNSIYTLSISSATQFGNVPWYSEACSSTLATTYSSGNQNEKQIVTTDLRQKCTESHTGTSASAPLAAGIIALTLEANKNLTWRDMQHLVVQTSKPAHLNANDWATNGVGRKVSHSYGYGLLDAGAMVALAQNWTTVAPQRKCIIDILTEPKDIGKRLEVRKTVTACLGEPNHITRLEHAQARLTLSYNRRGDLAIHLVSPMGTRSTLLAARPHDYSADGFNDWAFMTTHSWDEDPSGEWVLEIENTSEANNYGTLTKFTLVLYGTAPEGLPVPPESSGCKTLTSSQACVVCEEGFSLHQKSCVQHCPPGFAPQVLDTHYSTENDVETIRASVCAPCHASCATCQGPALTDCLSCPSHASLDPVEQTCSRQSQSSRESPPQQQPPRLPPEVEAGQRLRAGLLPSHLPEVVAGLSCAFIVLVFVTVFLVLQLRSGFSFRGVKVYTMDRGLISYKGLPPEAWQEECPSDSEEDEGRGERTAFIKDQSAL
Assay: furin cleavage Z-score vs untreated control; higher = more cleavage, active = 3.5 or more, inactive = 1 or less, 8 variable residues between constant flanks
Conditions: 15 min
Some of the results follow. The hit rate among all sequences tested is not known here.
ATTRIBUTE_MEASURED: furin cleavage Z-score

[
  {
    "CHAIN": "CASFLVFFCFAGNASASA [HC544]",
    "OBS_VALUE": -0.337
  },
  {
    "CHAIN": "CAMEMCSQHLAGNASASA [HC1706]",
    "OBS_VALUE": 2.05
  },
  {
    "CHAIN": "CALTLSPYYKAGNASASA [HC575]",
    "OBS_VALUE": -0.768
  },
  {
    "CHAIN": "CANTCVTQTVAGNASASA [HC888]",
    "OBS_VALUE": -1.07
  },
  {
    "CHAIN": "CALNCNDSLNAGNASASA [HC374]",
    "OBS_VALUE": -0.292
  },
  {
    "CHAIN": "CAMNSRKGRYAGNASASA [FS-1237]",
    "OBS_VALUE": 0.312
  },
  {
    "CHAIN": "CAHDSPDAELAGNASASA [HC1270]",
    "OBS_VALUE": -0.493
  }
]
